Exercise: state measured Human microsomes Clearance for each of the compounds provided.
# experimentNotes: Human liver microsome incubation
# Type: in vitro ADME
# experimentalConditions: intrinsic clearance; human liver microsomes 2.0 mg prot/mL, prodrug 10 μM, 37° C.

Examples with their reported Human microsomes Clearance follow.
structureString | Human microsomes Clearance
CCOC(=O)[C@H]1CCCN1C(=O)CCCCC(=O)N1CCC[C@@H]1C(=O)OCC | 5 ul/min/mg microsomal protein
C=CCNC(=O)COC(=O)[C@H]1CCCN1C(=O)CCCCC(=O)N1CCC[C@@H]1C(=O)OCC(=O)NCC=C | 64 ul/min/mg microsomal protein
COC(=O)[C@H]1CCCN1C(=O)CCCCC(=O)N1CCC[C@@H]1C(=O)OC | 2 ul/min/mg microsomal protein
O=C(COC(=O)[C@H]1CCCN1C(=O)CCCCC(=O)N1CCC[C@@H]1C(=O)OCC(=O)NC1CC1)NC1CC1 | 8 ul/min/mg microsomal protein
CC(C)NC(=O)COC(=O)[C@H]1CCCN1C(=O)CCCCC(=O)N1CCC[C@@H]1C(=O)OCC(=O)NC(C)C | 16 ul/min/mg microsomal protein

Record Human microsomes Clearance for all entries; do not skip any.
1. CCCOC(=O)[C@H]1CCCN1C(=O)CCCCC(=O)N1CCC[C@@H]1C(=O)OCCC
2. CN(C)C(=O)COC(=O)[C@H]1CCCN1C(=O)CCCCC(=O)N1CCC[C@@H]1C(=O)OCC(=O)N(C)C
3. NC(=O)COC(=O)[C@H]1CCCN1C(=O)CCCCC(=O)N1CCC[C@@H]1C(=O)OCC(N)=O
4. CCN(CC)C(=O)COC(=O)[C@H]1CCCN1C(=O)CCCCC(=O)N1CCC[C@@H]1C(=O)OCC(=O)N(CC)CC
5. CC(C)(C)NC(=O)COC(=O)[C@H]1CCCN1C(=O)CCCCC(=O)N1CCC[C@@H]1C(=O)OCC(=O)NC(C)(C)C

["73 ul/min/mg microsomal protein", "1 ul/min/mg microsomal protein", "1 ul/min/mg microsomal protein", "2 ul/min/mg microsomal protein", "57 ul/min/mg microsomal protein"]
